// data source = the supplement of paper PMC10567573

B1: SPDEF (parent)
chain: FQELAGKELCAMSEEQFRQRSPLG

Variants of: B1
ASSAY_NOTES: protein stability index of a GFP-peptide fusion (GPS, HEK-293T) (PSI 1-6); higher = more stable;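 further: lentivirally expressed fusions sorted by FACS into six bins by GFP to DsRed ratio, PSI derived from sequencing read proportions per bin multiplied by bin number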
MEASUREMENT_CONTEXT: c terminus: a fixed tail appended
MEASURED_ENDPOINT: protein stability index
Lab note: record just the number, no unit beside it.

Exam item: Recorded protein stability index of K7S , please.
Marked response: 2.94
